The origin of these recorded values is PubChem BioAssay (EPA / NIEHS).

# Read-out: Interleukin-6 (IL6), IL6 (gene 3569)
# experimentDescription: BSK_CASM3C_IL6: BioMAP Diversity Plus: CASM3C Assay for Interleukin-6 (IL6) Biomarker Activity for (AID 2283040)
# measurementSetup: primary human coronary artery smooth muscle cells; actives raise or lower the signal
Calls of active or inactive are those of the source. How the source made its calls: active means hit-call score of the fitted dose curve at least 0.9, where 1 is the maximum; inactive means score below 0.9.
Outcome codes: yes (1) = active, no (0) = inactive

1. COP(=S)(OC)Oc1nc(Cl)c(Cl)cc1Cl	no (0)
2. CN(C)C(=S)SSC(=S)N(C)C	no (0)
3. COc1nc(C)nc(NC(=O)NS(=O)(=O)c2ccccc2CCC(F)(F)F)n1	no (0)
4. CCCCC(CC)COC(=O)c1ccccc1C(=O)OCC(CC)CCCC (configuration not stated)	yes (1)
5. O=C(Nc1ccccc1)Nc1ccnc(Cl)c1	no (0)
6. N#Cc1nn(-c2c(Cl)cc(C(F)(F)F)cc2Cl)c(N)c1S(=O)C(F)(F)F (configuration not stated)	no (0)
7. Cc1c(F)c(F)c(COC(=O)C2C(/C=C(\Cl)C(F)(F)F)C2(C)C)c(F)c1F (configuration not stated)	no (0)
8. CS/C(C)=N/OC(=O)N(C)SN(C)C(=O)O/N=C(\C)SC	yes (1)
9. CCNc1nc(Cl)nc(NCC)n1	no (0)
10. CC1COC(Cn2cncn2)(c2ccc(Oc3ccc(Cl)cc3)cc2Cl)O1 (configuration not stated)	no (0)
11. N#Cc1cc(Br)c(O)c(Br)c1	no (0)
12. N#CC(CCc1ccc(Cl)cc1)(Cn1cncn1)c1ccccc1 (configuration not stated)	no (0)
13. COc1ccc(C(c2ccc(OC)cc2)C(Cl)(Cl)Cl)cc1	yes (1)
14. COc1nc(NC(C)C)nc(NC(C)C)n1	no (0)
15. O=C(O)c1nc(Cl)ccc1Cl	no (0)
16. CCOc1cc(Oc2ccc(C(F)(F)F)cc2Cl)ccc1[N+](=O)[O-]	no (0)
17. C=CC1(C)OC(=O)N(c2cc(Cl)cc(Cl)c2)C1=O (configuration not stated)	no (0)

###

# experimentDescription: BSK_CASM3C_SRB: Viability Assessment in the BioMAP Diversity Plus: CASM3C Assay (AID 2283050);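 further: total protein by SRB staining as cytotoxicity measure in parallel cultures; cells exposed to compound for 24 h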
# measurementSetup: primary human coronary artery smooth muscle cells
Active and inactive are the calls of the source. Rule for the calls: active = hit-call score of the fitted dose curve at least 0.9, where 1 is the maximum; inactive = score below 0.9.
Outcome codes: 1 for active, -1 for inactive

1) O=C(O)COc1nc(Cl)c(Cl)cc1Cl	-1
2) CN(C)C(=S)SSC(=S)N(C)C	-1
3) Cc1cc(Cl)ccc1OCC(=O)O	-1
4) Fc1ccc(Oc2ccnc3cc(Cl)cc(Cl)c23)cc1	1
5) CC(C)Oc1cc(-n2nc(C(C)(C)C)oc2=O)c(Cl)cc1Cl	-1
6) COc1nc(NC(C)C)nc(NC(C)C)n1	-1
7) O=C(O)c1nc(Cl)ccc1Cl	-1
8) COC(=O)C=C(C)OP(=O)(OC)OC	-1
9) CON(C)C(=O)Nc1ccc(Cl)c(Cl)c1	-1
10) COP(N)(=O)SC (stereo unspecified)	-1
11) CCOC(=O)CC(SP(=S)(OC)OC)C(=O)OCC (stereo unspecified)	-1
12) CCCCC(CC)COC(=O)c1ccccc1C(=O)OCC(CC)CCCC (stereo unspecified)	-1
13) OC(c1ccc(Cl)cc1)(c1cncnc1)c1ccccc1Cl (stereo unspecified)	-1
14) CCOP(=S)(OCC)SCn1c(=O)oc2cc(Cl)ccc21	-1
15) CC1COC(Cn2cncn2)(c2ccc(Oc3ccc(Cl)cc3)cc2Cl)O1 (stereo unspecified)	-1
16) CCCCNC(=O)n1c(NC(=O)OC)nc2ccccc21	-1
17) CNC(=S)S	-1
18) CC(C)(C)c1ccc(CSc2cnn(C(C)(C)C)c(=O)c2Cl)cc1	-1
19) C=CCC1=C(C)[C@@H](OC(=O)[C@@H]2[C@@H](C=C(C)C)C2(C)C)CC1=O	-1
20) CNC(=O)ON=CC(C)(C)SC	-1
21) Cc1c(F)c(F)c(COC(=O)C2C(/C=C(\Cl)C(F)(F)F)C2(C)C)c(F)c1F (stereo unspecified)	-1
22) Cc1ccc(-c2c(Cl)nc(C#N)n2S(=O)(=O)N(C)C)cc1	-1
23) CC1=C(C(=O)Nc2ccccc2)SCCO1	-1
24) CS/C(C)=N/OC(=O)N(C)SN(C)C(=O)O/N=C(\C)SC	1
25) COc1nc(C)nc(NC(=O)NS(=O)(=O)c2ccccc2CCC(F)(F)F)n1	-1
26) CO/C=C(/C(=O)OC)c1ccccc1Oc1cc(Oc2ccccc2C#N)ncn1	-1

###

# experimentDescription: CCTE_Shafer_MEA_dev_interburst_interval_mean: CCTE's Neural Network Formation Assay for Mean Interburst Interval, Shafer Lab (AID 2284046);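 further: well-mean interburst interval of bursting electrodes as AUC over four recording days; curve fitted for decrease in interburst interval relative to DMSO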
Calls of active or inactive are those of the source. The calls were made as follows: active = hit-call score of the fitted dose curve at least 0.9, where 1 is the maximum; inactive = score below 0.9.
Outcome codes: active, inactive

1. C=CCC1=C(C)[C@@H](OC(=O)[C@@H]2[C@@H](C=C(C)C)C2(C)C)CC1=O	inactive
2. COP(N)(=O)SC (centres undefined)	inactive
3. CN(C)C(=S)SSC(=S)N(C)C	active
4. C=CC1(C)OC(=O)N(c2cc(Cl)cc(Cl)c2)C1=O (centres undefined)	inactive
5. CNC(=O)ON=CC(C)(C)SC	inactive
6. Cc1ccc(-c2c(Cl)nc(C#N)n2S(=O)(=O)N(C)C)cc1	inactive
7. COc1ccc(C(c2ccc(OC)cc2)C(Cl)(Cl)Cl)cc1	inactive
8. N#Cc1nn(-c2c(Cl)cc(C(F)(F)F)cc2Cl)c(N)c1S(=O)C(F)(F)F (centres undefined)	inactive
9. CCCCNC(=O)n1c(NC(=O)OC)nc2ccccc21	inactive

###

# experimentDescription: CCTE_Mundy_HCI_Cortical_Synap_Neur_Matur_NeuriteSpotCountPerNeuron: CCTE's Synaptogenesis and Neurite Maturation Assay in rat cortical cells for Neurite Spot Count per Neuron Count, Mundy Lab (AID 2284215)
The source made the active and inactive calls. The calls were made as follows: active = hit-call score of the fitted dose curve at least 0.9, where 1 is the maximum; inactive = score below 0.9.
Outcome codes: T for active, F for inactive

1) COC(=O)N(OC)c1ccccc1COc1ccn(-c2ccc(Cl)cc2)n1	T
2) C=CCC1=C(C)C(OC(=O)C2C(C=C(C)C)C2(C)C)CC1=O (stereo unspecified)	F
3) C=CC1(C)OC(=O)N(c2cc(Cl)cc(Cl)c2)C1=O (stereo unspecified)	F
4) CCCCNC(=O)n1c(NC(=O)OC)nc2ccccc21	F
5) COP(N)(=O)SC (stereo unspecified)	F
6) COP(=S)(OC)Oc1nc(Cl)c(Cl)cc1Cl	T
7) CCOc1cc(Oc2ccc(C(F)(F)F)cc2Cl)ccc1[N+](=O)[O-]	T
8) N#Cc1nn(-c2c(Cl)cc(C(F)(F)F)cc2Cl)c(N)c1S(=O)C(F)(F)F (stereo unspecified)	T
9) CNC(=O)ON=CC(C)(C)SC	F
10) CC(C)(C)c1ccc(CSc2cnn(C(C)(C)C)c(=O)c2Cl)cc1	T
11) C=CCC1=C(C)[C@@H](OC(=O)[C@@H]2[C@@H](C=C(C)C)C2(C)C)CC1=O	T

###

# Read-out: Cytochrome P450 (CYP1A2), CYP1A2 (gene 1544)
# experimentDescription: LTEA_HepaRG_CYP1A2: Life Technologies and Expression Analysis (LTEA) Assay for Cytochrome P450 (CYP1A2) using HepaRG (AID 2283479)
# measurementSetup: mRNA level, 48 h; actives raise or lower the signal
Calls of active or inactive are those of the source. How the source made its calls: active means hit-call score of the fitted dose curve at least 0.9, where 1 is the maximum; inactive means score below 0.9.
Outcome codes: active, inactive

1) O=C(O)COc1nc(Cl)c(Cl)cc1Cl	inactive
2) CCOc1cc(Oc2ccc(C(F)(F)F)cc2Cl)ccc1[N+](=O)[O-]	active
3) COc1cnc(OC)n2nc(NS(=O)(=O)c3c(OCC(F)F)cccc3C(F)(F)F)nc12	inactive
4) Cc1c(F)c(F)c(COC(=O)C2C(/C=C(\Cl)C(F)(F)F)C2(C)C)c(F)c1F (configuration not stated)	inactive
5) COc1nc(NC(C)C)nc(NC(C)C)n1	active
6) Fc1ccc(Oc2ccnc3cc(Cl)cc(Cl)c23)cc1	active
7) CC(C)C1(C)N=C(c2nc3ccccc3cc2C(=O)O)NC1=O (configuration not stated)	active
8) CCOC(=O)CC(SP(=S)(OC)OC)C(=O)OCC (configuration not stated)	active
9) N#Cc1nn(-c2c(Cl)cc(C(F)(F)F)cc2Cl)c(N)c1S(=O)C(F)(F)F (configuration not stated)	active
10) CON(C)C(=O)Nc1ccc(Cl)c(Cl)c1	active
11) CCCCOC(=O)c1ccccc1C(=O)OCCCC	inactive
12) CCCC1COC(Cn2cncn2)(c2ccc(Cl)cc2Cl)O1 (configuration not stated)	active
13) COC(=O)c1ccccc1C(=O)OC	inactive
14) CNC(=S)S	active
15) N#CC(CCc1ccc(Cl)cc1)(Cn1cncn1)c1ccccc1 (configuration not stated)	active
16) COC(=O)C=C(C)OP(=O)(OC)OC	inactive
17) COc1ccc(C(c2ccc(OC)cc2)C(Cl)(Cl)Cl)cc1	inactive
18) OC(c1ccc(Cl)cc1)(c1cncnc1)c1ccccc1Cl (configuration not stated)	active
19) CC(Oc1ccc(Cl)cc1Cl)C(=O)O (configuration not stated)	inactive
20) CCCCNC(=O)OCC#CI	active
21) CN(C)C(=S)SSC(=S)N(C)C	inactive
22) Cc1cc(Cl)ccc1OCC(=O)O	active
